The reported numbers originate from ChEMBL document CHEMBL1131702.

Assay: Ratio of ERPc prolongation was measured as percent change at 3 Hz/1 Hz
Type: functional
hey, just use Criterion met if measured Ratio is less than 80, otherwise Criterion not met

These solved cases illustrate the format of a correct answer.
• COc1ccc(CCN(C)CCOc2ccc(NS(C)(=O)=O)cc2OCc2ccccc2)cc1OC = Criterion not met
• COc1ccc(CCN(C)CCOc2ccc(NS(C)(=O)=O)cc2F)cc1OC = Criterion met
• COc1cc(CCN(C)CCOc2ccc(NS(C)(=O)=O)cc2Cl)c([N+](=O)[O-])cc1OC = Criterion not met
• COc1ccc(CCN(C)CCOc2ccc(NS(C)(=O)=O)cc2N)cc1OC = Criterion not met
• CN(CCOc1ccc(NS(C)(=O)=O)cc1)CCc1ccc(NS(C)(=O)=O)cc1 [DOFETILIDE] = Criterion met
• Cc1cccc(CCN2CCC(C(=O)c3ccc(NS(C)(=O)=O)cc3)CC2)n1 = Criterion met
• COc1cc(C)c(CCN(C)CCOc2ccc(NS(C)(=O)=O)cc2Cl)cc1OC = Criterion not met
• COc1ccc(CCN(C)CCOc2ccc(NS(C)(=O)=O)cc2I)cc1OC = Criterion met

q: Just wondering, is Ratio of COc1ccc(CCN(C)CCOc2ccc(NS(C)(=O)=O)cc2[N+](=O)[O-])cc1OC below 80?
a: Criterion met

q: Just wondering, is Ratio of COc1cc(N)c(CCN(C)CCOc2ccc(NS(C)(=O)=O)cc2-n2cccc2)cc1OC below 80?
a: Criterion met

q: Just wondering, is Ratio of COc1cc(N)c(CCN(C)CCOc2ccc(NS(C)(=O)=O)cc2Cl)cc1OC below 80?
a: Criterion not met

q: Just wondering, is Ratio of COc1ccc(CCN(C)CCOc2ccc(NS(C)(=O)=O)cc2Nc2nccs2)cc1OC below 80?
a: Criterion not met

q: Just wondering, is Ratio of COc1ccc(CCN(C)CCOc2ccc(NS(C)(=O)=O)cc2NC(C)=O)cc1OC below 80?
a: Criterion met

q: Just wondering, is Ratio of COc1ccc(CCN(C)CCOc2ccc(NS(C)(=O)=O)cc2-n2cccc2)cc1OC below 80?
a: Criterion not met

q: Just wondering, is Ratio of COc1ccc(CCN(C)CCOc2ccc(NS(C)(=O)=O)cc2)cc1OC below 80?
a: Criterion met

q: Just wondering, is Ratio of COc1ccc(CCN(C)CCOc2ccc(NS(C)(=O)=O)cc2Br)cc1OC below 80?
a: Criterion met

q: Just wondering, is Ratio of COc1ccc(CCN(C)CCOc2ccc(NS(C)(=O)=O)cc2Cl)cc1OC below 80?
a: Criterion not met

q: Just wondering, is Ratio of COc1ccc(CCN(C)CCOc2ccc(NS(C)(=O)=O)cc2C)cc1OC below 80?
a: Criterion not met

###

Species on record: Cavia porcellus
Experiment: Effective refractory period of contractile response in isolated guinea-pig papillary muscles at 3 Hz and 1 uM.
Format: functional, Muscle tissue
Exercise: for every item that follows, state its recorded Delta ERPc.
Numbers only, in %.

• COc1ccc(CCN(C)CCOc2ccc(NS(C)(=O)=O)cc2Nc2nccs2)cc1OC = 36.8

Value sought for every listed compound: Delta ERPc.
1. COc1ccc(CCN(C)CCOc2ccc(NS(C)(=O)=O)cc2Cl)cc1OC
2. COc1cc(N)c(CCN(C)CCOc2ccc(NS(C)(=O)=O)cc2Cl)cc1OC

a:
1. 30.8
2. 34.7

Value sought for every listed compound: Delta ERPc.
1. CN(CCOc1ccc(NS(C)(=O)=O)cc1)CCc1ccc(NS(C)(=O)=O)cc1 [DOFETILIDE]
2. COc1ccc(CCN(C)CCOc2ccc(NS(C)(=O)=O)cc2N)cc1OC
3. COc1ccc(CCN(C)CCOc2ccc(NS(C)(=O)=O)cc2-n2cccc2)cc1OC
4. COc1ccc(CCN(C)CCOc2ccc(NS(C)(=O)=O)cc2F)cc1OC
5. COc1cc(Cl)c(CCN(C)CCOc2ccc(NS(C)(=O)=O)cc2Cl)cc1OC

a:
1. 30.8
2. 32.6
3. 40.1
4. 25.9
5. 17.8

Value sought for every listed compound: Delta ERPc.
1. COc1ccc(CCN(C)CCOc2ccc(NS(C)(=O)=O)cc2Br)cc1OC
2. Cc1cccc(CCN2CCC(C(=O)c3ccc(NS(C)(=O)=O)cc3)CC2)n1

a:
1. 25.2
2. 30.2
